Can you tell me kd for the items I'm about to list?
Molecular target: biotinylated (prokaryotic) IL-6 (Homo sapiens, UniProt P05231)
Sequence (P05231 30-212): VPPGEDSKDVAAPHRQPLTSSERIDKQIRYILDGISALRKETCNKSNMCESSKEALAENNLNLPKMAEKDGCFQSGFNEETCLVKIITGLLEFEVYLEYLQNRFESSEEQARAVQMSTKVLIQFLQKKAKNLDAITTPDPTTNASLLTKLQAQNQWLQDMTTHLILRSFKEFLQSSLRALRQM
Assay: Surface plasmon resonance (Biacore), biotinylated IL-6 captured on streptavidin sensor chip
Format: binding
Details: purified Fab
Protocol: The binding kinetics of IL-6-specific Fabs that were able to cross-compete with the B-E8 antibody was assessed using surface plasmon resonance (Biacore). […] From the washing phase the off-rate (kd) was determined, while from the injection phase the on-rate (ka) was calculated using the concentration and off-rate as parameters. […]
// note: answer is a bare numeric in s⁻¹

Qu. Bench note: what kd did 29B11: antagonistic IL-6-specific Fab clone from immunized llama (antibody, listed as Lama glama, V domains shown) VH: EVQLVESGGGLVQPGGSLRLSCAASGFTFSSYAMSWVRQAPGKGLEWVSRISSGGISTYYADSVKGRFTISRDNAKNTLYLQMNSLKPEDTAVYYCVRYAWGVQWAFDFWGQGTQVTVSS VL: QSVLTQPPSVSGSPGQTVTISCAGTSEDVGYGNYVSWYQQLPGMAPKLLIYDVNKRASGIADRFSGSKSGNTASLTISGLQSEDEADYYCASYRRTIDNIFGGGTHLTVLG show?
Ans. 0.00298

Qu. Now this one: 18F8: antagonistic IL-6-specific Fab clone from immunized llama (antibody, listed as Lama glama, V domains shown) VH: EVQLVESGGGLVQPGGSLRLSCAASGFTFSRNAMSWVRQAPGKGLEWVSAINSGGGSTSYADSVKGRFTISRDNAKNTLYLQMNSLKPEDTAVYYCAKEGYTGWKDPMYDYWGQGTQVTVSS VL: QSALTQPSALSVTLGQTAKITCQGGSLGSRYAHWYQQKPGQAPVLVIYDDDSRPSGIPERFSGSSSGGRATLTISGAQAEDEGDYYCQSADTSEHIVFGGGTHLTVLG
Ans. 0.000784
